Property: IC50; scope: individual compounds
Biological target: Recombinant ROCK1 (amino acids 1-477) (Homo sapiens, UniProt Q13464)
Construct: Recombinant ROCK1 (amino acids 1-477)
Sequence (Q13464 1-477): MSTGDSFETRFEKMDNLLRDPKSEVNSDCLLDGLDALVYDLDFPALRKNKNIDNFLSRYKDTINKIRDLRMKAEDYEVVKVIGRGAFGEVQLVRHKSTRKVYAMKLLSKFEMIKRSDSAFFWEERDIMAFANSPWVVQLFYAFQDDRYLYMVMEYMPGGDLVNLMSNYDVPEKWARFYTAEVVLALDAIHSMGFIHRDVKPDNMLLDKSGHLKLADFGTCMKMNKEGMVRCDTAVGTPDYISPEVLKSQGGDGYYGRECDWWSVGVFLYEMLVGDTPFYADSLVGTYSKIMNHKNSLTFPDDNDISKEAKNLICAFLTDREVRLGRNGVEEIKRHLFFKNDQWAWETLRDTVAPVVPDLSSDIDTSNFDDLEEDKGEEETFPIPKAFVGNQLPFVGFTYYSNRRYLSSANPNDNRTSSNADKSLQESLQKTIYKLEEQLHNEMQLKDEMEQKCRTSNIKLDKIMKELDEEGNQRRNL
Test: ROCK inhibition assay, LANCE Ultra TR-FRET (ROCK1)
Conditions: 1 mM of ATP

Take a look at these entries with their results.
>>> result("COc1ccc2c(c1)CC(C(=O)c1cn(CC3(N)CC3)c3cc(-c4cn[nH]c4Cl)ccc13)CO2 (stereo not shown)")
"21 to 200 nM"
>>> result("COc1ccc2c(c1)CC(C(=O)c1cn(C[C@@H]3CCN3)c3cc(-c4cn[nH]c4OC)ccc13)CO2 (stereo partly shown)")
"201 to 500 nM"
>>> result("CC(N)Cn1cc(C(=O)C2COc3ccc(F)cc3C2)c2cnc(-c3c[nH]nc3Cl)cc21 (stereo not shown)")
"21 to 200 nM"

In the following, a different compound is considered.
Request: Requested field: IC50. Item: COc1ccc2c(c1)CC(C(=O)c1nn(CCN(C)C)c3cc(-c4c[nH]nc4OC)ccc13)CO2 (stereo not shown)
Response: 21 to 200 nM

* * *

Target: Recombinant ROCK2 (amino acids 5-554) (Homo sapiens)
Construct: ROCK2 (amino acids 5-554)
Assay: ROCK inhibition assay, LANCE Ultra TR-FRET (ROCK2)
Details: 1 mM of ATP
property: IC50

Example molecules with recorded IC50:
>>> result("CN(C)CCn1cc(C(=O)[C@@H]2COc3ccc(Cl)cc3C2)c2ccc(-c3cn[nH]c3F)cc21 [Compound 1-25]")
"21 to 200 nM"
>>> result("O=C(c1cn(C[C@H]2CCN2)c2cc(-c3cn[nH]c3Cl)ccc12)C1COc2ccc(Cl)cc2C1 (stereo partly shown)")
"21 to 200 nM"
>>> result("CN(C)CCn1nc(C(=O)C2COc3ccc(Cl)cc3O2)c2ccc(-c3c[nH]nc3F)cc21 (stereo not shown)")
"21 to 200 nM"
>>> result("C[C@H](N)Cn1cc(C(=O)C2COc3ccc(Cl)cc3C2)c2ccc(-c3c[nH]nc3Cl)cc21 (stereo partly shown)")
"< 20 nM"

Request: State the recorded IC50 for this entry: CN(C)CCn1nc(C(=O)C2COc3ccccc3C2)c2ccc(-c3c[nH]nc3C(F)(F)F)cc21 (stereo not shown)
Response: 201 to 500 nM

Request: Please look up its IC50: CN(C)CCn1cc(C(=O)[C@@H]2COc3ccc(Cl)cc3C2)c2ccc(-c3cn[nH]c3F)cc21 [Compound 1-26]
Response: < 20 nM

Request: Query (molecule): CN(C)CCn1nc(C(=O)C2COc3ccc(Cl)cc3O2)c2ccc(-c3c[nH]nc3Cl)cc21 (stereo not shown) ; field requested: IC50
Response: 21 to 200 nM

* * *

Target: Recombinant ROCK2 (amino acids 5-554) (Homo sapiens, UniProt O75116)
Construct: ROCK2 (amino acids 5-554)
Sequence (O75116 5-554): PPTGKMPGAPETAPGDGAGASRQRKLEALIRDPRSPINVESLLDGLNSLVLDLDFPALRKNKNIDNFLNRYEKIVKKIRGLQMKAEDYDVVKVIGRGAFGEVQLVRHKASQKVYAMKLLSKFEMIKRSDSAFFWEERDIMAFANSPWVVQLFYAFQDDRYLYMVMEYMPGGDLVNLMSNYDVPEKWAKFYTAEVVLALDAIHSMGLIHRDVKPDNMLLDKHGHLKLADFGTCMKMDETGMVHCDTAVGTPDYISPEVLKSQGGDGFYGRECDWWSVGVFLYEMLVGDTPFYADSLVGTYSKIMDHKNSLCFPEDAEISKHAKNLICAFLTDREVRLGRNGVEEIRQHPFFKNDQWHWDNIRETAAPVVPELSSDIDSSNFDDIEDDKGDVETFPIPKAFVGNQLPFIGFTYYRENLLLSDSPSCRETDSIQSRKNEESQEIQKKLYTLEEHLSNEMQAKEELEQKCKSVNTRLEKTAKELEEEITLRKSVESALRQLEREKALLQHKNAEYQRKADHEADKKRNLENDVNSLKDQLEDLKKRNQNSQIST
Assay: ROCK inhibition assay, LANCE Ultra TR-FRET (ROCK2)
Details: 1 mM of ATP
pIC50: −log10 of the molar value.
property: pIC50

For orientation, consider the following solved cases.
>>> result("COc1ccc2c(c1)CC(C(=O)c1cn(C[C@H]3CCN3C)c3cc(-c4cn[nH]c4OC)ccc13)CO2 (stereo partly shown)")
"6.70 to 7.68"
>>> result("O=C(c1cn(C2CNC2)c2cc(-c3c[nH]nc3Cl)ncc12)C1COc2ccc(F)cc2C1 (stereo not shown)")
"6.70 to 7.68"
>>> result("CNCCn1cc(C(=O)C2COc3ccc(F)cc3C2)c2ccc(-c3c[nH]nc3Cl)cc21 (stereo not shown)")
"> 7.70"

Now let's try a different one.
Request: Please give the measured pIC50 for this compound: COc1ccc2c(c1)C[C@H](C(=O)c1cn(CCN(C)C)c3cc(-c4c[nH]nc4Cl)ccc13)CO2
Response: > 7.70
